Where these numbers come from: patent US20220204601A1

biological target: T1, K280-ac protein fragment (human); experiment: ELISA on K280-ac coated at 250 ng/well, HRP anti-human IgG
T1 construct: also called mAC
T1 peptide: VQIINK(Ac)KLDLSN
Ends that are not written are not given here.
Measured Metric: Absorbance at 450nm at 0.25ug/well
// print number alone

Examples with their reported Absorbance at 450nm at 0.25ug/well follow.
>>> result_number("ADEL-Y01h v10 antibody (antibody, V domains shown, Humanized antibody; It was detected with anti-human IgG; also called Y01h01v10) VH: EVQLVESGGGLVQPGRSLRLSCTVSGDSITSGYWNWFRQAPGKGLEYVGYIRYSGRTYYNPSLKSRFTISRDTSKNIAYLQMNSLKTEDTAVYYCASVYFTYWGQGTLVTVSS VL: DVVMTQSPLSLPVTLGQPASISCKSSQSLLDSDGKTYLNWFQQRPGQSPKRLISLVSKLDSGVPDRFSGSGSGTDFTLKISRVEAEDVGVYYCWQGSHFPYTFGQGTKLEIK")
1.64
>>> result_number("ADEL-Y01h v05 antibody (antibody, V domains shown, Humanized antibody; It was detected with anti-human IgG; also called Y01h01v05) VH: EVQLQQSGPGLVKPSQTLSLTCAVSGDSITSGYWNWIRQSPSRGLEWLGYIRYSGRTYYNPSLKSRITINRDTSKNQFSLQLNSVTPEDTAVYYCASVYFTYWGQGTLVTVSS VL: DVVMTQSPDSLAVSLGERATINCKSSQSLLDSDGKTYLNWYQQKPGQSPKRLISLVSKLDSGVPDRFSGSGSGTDFTLTISSLQAEDVAVYYCWQGSHFPYTFGQGTKLEIK")
1.3

Shifting focus to the binder that follows.
Req: Reported Absorbance at 450nm at 0.25ug/well for v11 (antibody, V domains shown, also called Y01h01v11; ADEL-Y01h v11 antibody) VH: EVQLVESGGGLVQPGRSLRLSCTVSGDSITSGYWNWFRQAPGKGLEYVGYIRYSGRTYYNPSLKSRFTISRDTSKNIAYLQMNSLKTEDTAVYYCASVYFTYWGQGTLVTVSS VL: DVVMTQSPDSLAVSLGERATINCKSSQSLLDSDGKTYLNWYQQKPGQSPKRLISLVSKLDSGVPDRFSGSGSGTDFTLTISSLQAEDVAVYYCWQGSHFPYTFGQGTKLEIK : what is it?
Resp: 0.036
